tested on: CFP-T7; assay: Surfactant resistance of amadoriase during addition of each stabilizer (CFP-T7); assay type: biochemical, genus Coniochaeta; details: Stabilizer 2 mM; 500 mM HEPES (pH 7.0); 0.01% CTAC; Table 9-2
RECORDED ENDPOINT: CFP-T7 Residual Activity (%)
Supply the numeric figure in %, leaving out any unit text.

Worked set:
| COMPOUND | NUMERIC RESULT |
| --- | --- |
| O=C(O)CC(=O)O [Malonate, malonic acid] | 10.8 |
| O=C(O)/C=C\C(=O)O [Maleate, maleic acid] | 15.5 |

Query block: # query: CFP-T7 Residual Activity (%) of entry O=C(O)C(O)C(O)C(=O)O (centres unmarked) [Tartrate, tartaric acid]
Result block: 5.3

Query block: # get_value(readout='CFP-T7 Residual Activity (%)', item= C/C(=C/C(=O)O)C(=O)O [Citraconate, citraconic acid] )
Result block: 18.5

Query block: Data request, read-out CFP-T7 Residual Activity (%), for O=C(O)CCCC(=O)O [Glutarate, glutaric acid]
Result block: 4.5

====

system: CFP-T7; assay: Surfactant resistance of amadoriase in presence of buffering agents; type: biochemical, genus Coniochaeta; conditions: Buffer Solution 100 mM; 0.01% CTAC; pH 7.0 (citrate pH 6.0); purified CFP-T7
Binarize CFP-T7 Residual Activity (%) at 20%; below is YES, at or above is NO.

Below are worked cases with known answers.
| MOLECULE | CLASS ASSIGNMENT |
| --- | --- |
| O=S(=O)(O)CCN1CCN(CCO)CC1 [HEPES, reference compound] | YES |
| NC(=O)CNCCS(=O)(=O)O [ACES] | YES |
| O=C(O)CC(O)(CC(=O)O)C(=O)O [Citrate, citric acid] | NO |
| O=S(=O)(O)CCN1CCOCC1 [MES, 2-(N-morpholino)ethanesulfonic acid] | YES |

Query molecule follows.
Query block: Below 20% on CFP-T7 Residual Activity (%)? Entry O=P(O)(O)O [Phosphate, phosphoric acid]
Result block: NO

====

system: CFP-T7; assay: Surfactant resistance of amadoriase during addition of each stabilizer (CFP-T7); assay type: biochemical, genus Coniochaeta; details: Stabilizer 10 mM; 500 mM HEPES (pH 7.0); 0.01% CTAC; Table 9-1
RECORDED ENDPOINT: CFP-T7 Residual Activity (%)
State the result as a value with its unit after it.

| COMPOUND | RESULT |
| --- | --- |
| CC(=O)O [Acetate, acetic acid] | 8.9% |
| O=P(O)(O)O [Phosphate, phosphoric acid] | 76.8% |
| O=S(=O)(O)CCN1CCOCC1 | 19.5% |

Switching to the query record.
Query block: Report CFP-T7 Residual Activity (%) for O=C(O)CC(O)C(=O)O (stereo not shown) [Malate, malic acid] please.
Result block: 74.3%

====

Below is a list of entries, each paired with its recorded CFP-T7 Residual Activity (%) value.
test system: CFP-T7; test: Surfactant resistance of amadoriase during addition of each stabilizer (CFP-T7); type: biochemical, genus Coniochaeta; conditions: Stabilizer 10 mM; 500 mM HEPES (pH 7.0); 0.01% CTAC; Table 9-2
Numeric only. Scale: %

Check out these entries, answers already filled in.
| MOLECULE | NUMERIC RESULT |
| --- | --- |
| O=C(O)C(O)C(O)C(=O)O (stereo not shown) [Tartrate, tartaric acid] | 70.0 |
| O=C(O)CC(=O)O [Malonate, malonic acid] | 77.3 |
| C/C(=C/C(=O)O)C(=O)O [Citraconate, citraconic acid] | 89.1 |

Query block: Param readout= CFP-T7 Residual Activity (%); system= CFP-T7; entry= O=C(O)CCCC(=O)O [Glutarate, glutaric acid] ; returns value.
Result block: 55.9

Query block: Hi! What's the reported CFP-T7 Residual Activity (%) for O=C(O)/C=C\C(=O)O [Maleate, maleic acid] on CFP-T7?
Result block: 81.5

Query block: Observed CFP-T7 Residual Activity (%) on CFP-T7 for O=S(=O)(O)CCCN1CCOCC1 [MOPS, 3-(N-morpholino)propanesulfonic acid] , please.
Result block: 6.5

Query block: Record O=S(=O)(O)CC(O)CN1CCOCC1 (stereo not shown) [MOPSO] : what is its CFP-T7 Residual Activity (%) with CFP-T7?
Result block: 9.0
